Reference for the values: patent US20250034116A1

Measured HLM (% inh @ 500 nM) accompanies every entry in the list below.
# Tested on: CYP enzymes in human liver microsomes (HLM)
# Assay Name: Inhibition of 20-HETE production in human liver microsomes (HLM)
# Type: biochemical
# Test Context: 500 nM
// units = %; emit number, no label

I'd like to know its HLM (% inh @ 500 nM). The compound in question is O=C(Nc1ccc2ccccc2c1)C1CCN(c2ccc(-c3cn[nH]c3)cc2)CC1 [Compound 64]
81.86

I'd like to know its HLM (% inh @ 500 nM). The compound in question is O=C1CCCN1CC1CCN(c2ccc(-c3cn[nH]c3)cc2)CC1 [Compound 1]
79.83

I'd like to know its HLM (% inh @ 500 nM). The compound in question is O=C1CCCN1CC1CCN(c2ccc(-c3cc[nH]n3)cc2F)CC1 [Compound 76]
80.70

I'd like to know its HLM (% inh @ 500 nM). The compound in question is C[C@@H]1CN(C(=O)N2CCCC2)CCN1c1ccc(-c2cn[nH]c2)c(F)c1F [Compound 104]
78.18

I'd like to know its HLM (% inh @ 500 nM). The compound in question is O=C(NC1CCCCC1)C1CCN(c2ccc(-c3cn[nH]c3)cc2)CC1 [Compound 57]
81.76

I'd like to know its HLM (% inh @ 500 nM). The compound in question is O=C1CCCN1Cc1ccc(C2CCN(c3cn[nH]c3)CC2)cc1 [Reference 83, reference compound]
79.09

I'd like to know its HLM (% inh @ 500 nM). The compound in question is O=C1CCCN1CC1CCN(c2c(F)cc(-c3cn[nH]c3)cc2F)CC1 [Compound 5]
81.03

I'd like to know its HLM (% inh @ 500 nM). The compound in question is CN(C)c1cc(-c2cn[nH]c2)ccc1N1CCC(CN2CCCC2=O)CC1 [Compound 20]
36.16

Moving on to another compound below.
I'd like to know its HLM (% inh @ 500 nM). The compound in question is O=C1CCCN1Cc1ccc2c(c1)CN(c1ccc(-c3cn[nH]c3)cc1)C2 [Compound 126]
64.15

---

# Tested on: CYP enzymes in rat liver microsomes (RLM)
# Assay Name: Inhibition of 20-HETE production in rat liver microsomes (RLM)
# Assay type: biochemical
Experimental Readout: log10 of IC50 (log10 of the value in nM)
Heads up, the numbers here are log10 of IC50 in nM units.

I'd like to know its log10 of IC50. The compound in question is `O=C1CCCN1CC1CCN(c2c(F)cc(-c3cn[nH]c3)cc2F)CC1`
1.65

I'd like to know its log10 of IC50. The compound in question is `CCCCCCC(=O)NCC1CCN(c2ccc(-c3cn[nH]c3)cc2)CC1`
1.53

I'd like to know its log10 of IC50. The compound in question is `O=C(C1CCN(c2ccc(-c3cn[nH]c3)cc2)CC1)N1CCCCC1`
3.00

I'd like to know its log10 of IC50. The compound in question is `O=C(Nc1ccc2ccccc2c1)C1CCN(c2ccc(-c3cn[nH]c3)cc2)CC1`
1.94

I'd like to know its log10 of IC50. The compound in question is `O=C1CCCN1CC1CCN(c2ccc(-c3cn[nH]c3)c(F)c2F)CC1`
1.95

Others:
I'd like to know its log10 of IC50. The compound in question is `C[C@H]1CN(c2ccc(-c3cn[nH]c3)c(F)c2F)CCN1C(=O)N1CCCC1`
0.99

I'd like to know its log10 of IC50. The compound in question is `O=C1CCCCN1CC1CCN(c2ccc(-c3cn[nH]c3)c(F)c2F)CC1`
2.09
